Readings of Neutralization IC50 (RSV subtype A) for the listed binders
System tested: RSV F on RSV-A2 virus (Respiratory syncytial virus (RSV-A2))
Experimental protocol: cell-based or functional assay

Known results for binders:
# Binder, Neutralization IC50 (RSV subtype A)
records = [
    ("ADI-41279 (antibody, V domains shown) VH: QVQLVQSGAEVKKAGETLKISCRGPAHTFTSFWIGWVRQTPGKGLEWMGNIYPGDTDTTYSPSFRGQVTISADKSISTAYLQWNSLKASDTAIYYCATRVRHGYSSSGSFESWGQGTMVTVSS VL: QSVVTQPPSVSGAPGQRITISCTGSNSNTGAGYDVHWYQQLPGAAPKLLIFANNNRPSGVPDRFSGSKSGTSASLAITGLQAEDEADYYCQSYDNSLSAYVFGTGTKLTVL", "> 25 µg/mL"),
    ("ADI-41248 (antibody, V domains shown) VH: QVQLVQSGGGVVQPGRSLRLSCAASGFTFSSYSMHWVRQAPGKGLEWMAVCWYDGSNIYYADSVKGRFTISRDNSKNTVYLQMNSLRAEDTAVYYCARDDRYCSGGTCLSAFDIWGQGTMVTVSS VL: ETTLTQSPSSLSASVGDRVTITCRASQSISSYLNWYQQKPGRAPKLLIYTTSSLQSGVSSRFSGSGSGTDFTLTINSLQPEDFATYYCQQSYSTPNTFGQGTKVEIK", "> 25 µg/mL"),
    ("ADI-41320 (antibody, V domains shown) VH: QVQLVQSGVEVKKPGESLKISCRGFGYSAYNYWIAWVRQKPGKGLEYMGTIYLDDSDTIYSPSFQGEVTISADRSINTAYLQWNSLKASDTANYYCARQMDFYFDVWGRGTLVTVSS VL: QSVLTQPPSVSVSPGQTARITCSGDPLPRESAYWYQQKPGQAPVVVIFNDIERPLGIPARFSGSRSGTTVTLTISGAQAEDEADYYCQSADSRKTFVFGPGTKLTVL", "> 25 µg/mL"),
    ("ADI-41247 (antibody, V domains shown) VH: QVQLVQSGAEVKKPGASLQVSCKASGYTFTDSYFHWVRQAPGQGLEWMGRISPHSGGTNYAQKFQGRVTMTRDTSISTAYLELSRLRSDDTAVYYCATEGPRGPFRFDPWGQGTLVTVSS VL: NFMLTQPHSVSESPGKTVTISCTRSSGSIASNYVQWYQQRPGSSPTTVIYEDNQRPSGVPDRFSGSIDSSSNSASLTISGLMTEDEADYYCQSYDSSNWVFGGGTKLTVL", "> 25 µg/mL"),
    ("ADI-41287 (antibody, V domains shown) VH: EVQLVESGGGLVQPGRSLRLSCAASGFTFDDYAMHWVRQAPGKGLEWVSSISWHSADIGYAASVEGRFTISRDNAKNSLFLQMNSLRPEDTALYYCAKEIVSTSWYSGYFQDWGQGTLVTVSS VL: QPVLTQPRSVSGSPGQSVTISCTGTSSDVGDYNYVSWYQQHPGKAPKLMIYDVSKRPSGVPDRFSGSKSGNTASLTISGLQGEDEADYYCCSYAGRHTFVFGTATKVTVL", "5.85 µg/mL"),
]

*Q* Quick one: Neutralization IC50 (RSV subtype A) of ADI-41285 (antibody, V domains shown) VH: QVQLVQSGAEVKKPGSSVKVSCKASGGTFSYYAISWVRQAPGQGLEWMGGIIPILGTVKNAQKFQGRVTITADKITSIAYMELSSLRHEDTAVYYCARDYYDSSGYYYNGYGMDVWGQGTTVTVSS VL: QSVLIQPPSASGTPGQRVTISCSGSSSNIGSNYVYWYQQLPGTAPKLLIYRNDQRPSGVPDRFSGSKSGTSASLAISGLRSGDEADYYCAAWDDSLGGPIWVFGGGTKLTVL ?
*A* > 25 µg/mL

*Q* Return reported Neutralization IC50 (RSV subtype A); argument: ADI-41266 (antibody, V domains shown) VH: QVQLQQSGPGLVKPSQTLSLTCAISGDSVSSNSAAWNWIRQSPSRGLEWLGRTYYRSKWYNDYAVSVKSRITINPDTSKNQFSLQLNSVTPEDTAVYYCARDLPQVDYFDGASFYFFDFWGQGTLVTVSS VL: QPVLTQPPSVSVAPGQTASITCGGNIIGNKGVHWYQQKPGRAPVLVVYDDSDRPSGIPERFSGSNSGNTATLTISRVEAADEADYYCQVWDTGSHPVVFGGGTKVTVL
*A* > 25 µg/mL

*Q* Look up Neutralization IC50 (RSV subtype A) for this binder: ADI-41256 (antibody, V domains shown) VH: QVQLVQSGAEVKSPGSSATVSCKASGGTFGSYGISWVRQAPGQGLEWIGAIMPMFGTTNYAQKFQGRVTMTADESTSTVYMDVSSLRPDDTAVYYCVRDVFYDILTGYYDADYYHHYMDVWGKGTTVTVSS VL: DIVMTQSPLSLPVTLGQPASISCRSGQSLVHSDGNTYLNWFQQRPGQSPRRLIYKVSNRGSGVPDRFSGSGSGTDFTLKISRVEAEDVGVYFCMQGTHWPRTFGQGTKVDIK
*A* 0.02 µg/mL

*Q* Value lookup for Neutralization IC50 (RSV subtype A); key = ADI-41236 (antibody, V domains shown) VH: QVQLVQSGGGLVKPGGSLRLSCTASGFTFSDYYMDWIRQAPGKGLEWVSSISSSSTYTKYADSVKGRFTISRDNAKNSLFLQMNSLRAEDTAVYYCVRNLGPYCSSTSCFVFDYWGQGTLVTVSS VL: QSVLTQPPSVSGAPGQRVSISCTGSSSNIGAGYEVHWYKQVPGTAPRLLMYDNTNRPSGVPDRVSGSKSGTSASLAITGLQAEDEADYYCQSYDNSLNKSVFGGGTKVTVL
*A* > 25 µg/mL

*Q* Please look up its Neutralization IC50 (RSV subtype A): ADI-41346 (antibody, V domains shown) VH: QVQLVQSGPEVKKPGESLKISCTLSASGLTTYWIGWVRQMPAKGLEWMGIIFPGDSDTRYSPSFQGQVTISADKSTNTAYLQWSGLKASDTAIYYCATLQTPVTGLDQWGQGTLVTVSS VL: NFMLTQPHSVSESPGKTVTISCTRSSGNIARSYVQWYQQRPGSAPTTVIHEDDQRPSGVPDRFSGSIDTSSNSASLTISGLKTEDEADYYCQSYDPSNYVFGTGTKVTVL
*A* > 25 µg/mL
